# experimental system: Fuc(a1-2)[GalNAc(a1-3)]Gal(b1-4)[Fuc(a1-3)]GlcNAc(b1-3)GalNAc
# test summary: glycan array binding signal (z-score within array); higher = stronger binding
# condition notes: glycan notation: IUPAC condensed, linker removed
Shown is part of a subset that was picked to be rich in the strongest signals.
Kindly state glycan array binding signal (z-score) for each of the entries shown.

Input Na-CTL-1 (Necator americanus) (protein) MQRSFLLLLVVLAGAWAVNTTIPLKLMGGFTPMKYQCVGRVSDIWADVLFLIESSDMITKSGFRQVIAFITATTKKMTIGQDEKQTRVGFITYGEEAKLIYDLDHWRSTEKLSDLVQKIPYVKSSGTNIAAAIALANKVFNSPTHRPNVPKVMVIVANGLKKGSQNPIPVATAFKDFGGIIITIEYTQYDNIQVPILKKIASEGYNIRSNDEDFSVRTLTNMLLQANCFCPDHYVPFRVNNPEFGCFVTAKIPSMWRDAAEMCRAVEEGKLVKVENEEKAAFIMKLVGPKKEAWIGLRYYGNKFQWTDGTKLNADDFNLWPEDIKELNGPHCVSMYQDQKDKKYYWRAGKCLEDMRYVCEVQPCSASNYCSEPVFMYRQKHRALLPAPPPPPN , output reported glycan array binding signal (z-score).
14.8

Please list glycan array binding signal (z-score) recorded for the binder SBD-G4S3-SBD (protein) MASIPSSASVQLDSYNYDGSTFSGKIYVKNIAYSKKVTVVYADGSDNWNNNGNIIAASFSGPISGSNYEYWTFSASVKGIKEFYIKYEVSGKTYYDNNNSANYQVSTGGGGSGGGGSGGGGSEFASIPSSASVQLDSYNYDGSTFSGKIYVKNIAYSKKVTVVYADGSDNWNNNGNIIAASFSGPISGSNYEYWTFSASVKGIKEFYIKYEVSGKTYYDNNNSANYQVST
4.46

Please give the documented glycan array binding signal (z-score) of Pwp5 ND (Candida glabrata) (protein) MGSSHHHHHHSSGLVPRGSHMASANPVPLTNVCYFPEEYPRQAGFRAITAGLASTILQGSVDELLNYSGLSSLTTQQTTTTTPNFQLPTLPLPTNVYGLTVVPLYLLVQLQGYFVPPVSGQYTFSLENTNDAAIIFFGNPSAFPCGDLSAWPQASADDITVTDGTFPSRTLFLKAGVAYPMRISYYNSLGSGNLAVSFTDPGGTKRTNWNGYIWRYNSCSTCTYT
-0.156

Dear colleague, please send me the reported glycan array binding signal (z-score) for CFEM-CGl (Candida glabrata), Q6FRS0 (protein) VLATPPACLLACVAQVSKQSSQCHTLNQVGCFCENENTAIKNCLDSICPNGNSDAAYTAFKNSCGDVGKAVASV when you can.
4.55

Please give the documented glycan array binding signal (z-score) of Pwp1 (Candida glabrata) (protein) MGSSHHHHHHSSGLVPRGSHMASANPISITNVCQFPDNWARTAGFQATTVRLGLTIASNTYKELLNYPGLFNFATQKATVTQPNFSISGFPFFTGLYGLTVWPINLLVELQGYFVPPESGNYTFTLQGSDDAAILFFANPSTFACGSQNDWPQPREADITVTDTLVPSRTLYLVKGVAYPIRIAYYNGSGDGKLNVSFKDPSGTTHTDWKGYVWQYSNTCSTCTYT
-0.825
